Below, each entry is listed with its recorded inhibition.
# measured.on: Large T antigen (Simian virus 40) (UniProt P03070)
# Sequence (P03070 whole entry, looked up): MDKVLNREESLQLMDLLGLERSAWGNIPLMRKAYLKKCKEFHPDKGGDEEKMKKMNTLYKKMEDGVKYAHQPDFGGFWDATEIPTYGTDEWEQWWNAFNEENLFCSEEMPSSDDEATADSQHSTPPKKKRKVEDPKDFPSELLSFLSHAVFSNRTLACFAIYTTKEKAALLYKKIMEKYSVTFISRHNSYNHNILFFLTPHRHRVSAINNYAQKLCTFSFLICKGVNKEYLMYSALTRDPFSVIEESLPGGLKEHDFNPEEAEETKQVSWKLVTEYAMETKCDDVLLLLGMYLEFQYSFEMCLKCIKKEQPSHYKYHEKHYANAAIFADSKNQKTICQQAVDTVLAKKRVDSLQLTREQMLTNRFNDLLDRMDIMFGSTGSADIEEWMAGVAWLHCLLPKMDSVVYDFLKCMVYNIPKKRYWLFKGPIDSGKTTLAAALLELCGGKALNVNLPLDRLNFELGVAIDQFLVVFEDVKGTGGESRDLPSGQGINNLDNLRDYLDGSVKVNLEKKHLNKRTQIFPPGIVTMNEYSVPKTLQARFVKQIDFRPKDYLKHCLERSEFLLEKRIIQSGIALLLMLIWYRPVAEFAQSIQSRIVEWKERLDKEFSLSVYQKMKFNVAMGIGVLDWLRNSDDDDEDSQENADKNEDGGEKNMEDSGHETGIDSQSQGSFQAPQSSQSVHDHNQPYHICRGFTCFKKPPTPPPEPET
# procedure.text: SV40 large T antigen inhibitors, biochemical (AID 1903)
# conditions.used: SV40 large T antigen ATPase/helicase inhibition assay; at 20 µM; hits give high values
Out of some 310,000 compounds screened, about 1,200 (0.39%) were called active. These entries were drawn from the full list. Potency and affinity values are given separately.
Numbers only here, please. The scale is %.

# example entries with known answers
smiles_str=C=CCn1c(SCC(=O)N2CCOCC2)nc2scc(-c3ccco3)c2c1=O result_number=22.1
smiles_str=COc1ccccc1NC(=O)COC(=O)c1ccccc1C(=O)N1CCN(c2ccccc2)CC1 result_number=6.53
smiles_str=COc1ccc(/C=N/Nc2nc(Nc3ccccc3)nc(N3CCCCC3)n2)cc1OC result_number=-16.1
smiles_str=CCc1nc2oc3ccccc3c(=O)c2c(=O)n1Cc1ccccc1 result_number=2.01
smiles_str=COc1cccc(OC)c1C(=O)Nc1ccc(S(=O)(=O)Nc2cc(C)nc(C)n2)cc1 result_number=20.7
smiles_str=C=CCn1c(SCC(=O)NCCCC)nc2scc(-c3ccco3)c2c1=O result_number=32.9

Q: Provide inhibition value for the following compound: CCOc1cc(/C=N/Nc2nnc(C)n2N)ccc1O
Ans: 24.2

Q: Provide inhibition value for the following compound: COc1ccc(/C=N/Nc2nc(N3CCCCC3)nc(N3CCCCC3)n2)cc1[N+](=O)[O-]
Ans: 4.11

Origin of values: PubChem BioAssay AID1903
